system: T. cruzi Ninoa strain; assay: in vivo short-term trypanocidal activity (parasitemia) in infected CD1 mice, Ninoa strain; design: species or system Trypanosoma cruzi in CD1 mice; settings: 100 mg/kg oral, 2 horas, Ninoa
Please provide measured Parasitemia inhibition percentage over the time, 2 horas Ninoa for the entries that follow.
One number for each entry.

Nc1nc(=O)c2nc(CNc3ccc(C(=O)N[C@@H](CCC(=O)O)C(=O)O)cc3)cnc2[nH]1 ... 100
O=C(O)c1cn(C2CC2)c2cc(N3CCNCC3)c(F)cc2c1=O ... 100
COc1ccc2cc([C@H](C)C(=O)O)ccc2c1 ... 100

// query Any idea what its Parasitemia inhibition percentage over the time, 2 horas Ninoa is? The compound is CC1CS(=O)(=O)CCN1/N=C/c1ccc([N+](=O)[O-])o1 (stereo not shown)
// result 100

###

system: T. cruzi INC-5 strain; experiment: in vivo short-term trypanocidal activity (parasitemia) in infected CD1 mice, INC-5 strain; set-up: species or system Trypanosoma cruzi in CD1 mice; details: 100 mg/kg oral, 6 horas (first column so headed), INC-5
Please provide measured Parasitemia inhibition percentage over the time, 6 horas INC-5 for the entries that follow.
Give bare numbers.

Recorded results for 3 molecules are shown here.
CC1CS(=O)(=O)CCN1/N=C/c1ccc([N+](=O)[O-])o1 (stereo not shown) [Nifurtimox] ... 55.5
O=C(O)c1cn(C2CC2)c2cc(N3CCNCC3)c(F)cc2c1=O [Ciprofloxacin] ... 62.5
COc1ccc2cc([C@H](C)C(=O)O)ccc2c1 [Naproxen] ... 71.4

Please look at the following molecule next.
// query Item Nc1nc(=O)c2nc(CNc3ccc(C(=O)N[C@@H](CCC(=O)O)C(=O)O)cc3)cnc2[nH]1 [Folic acid] with T. cruzi INC-5 strain - Parasitemia inhibition percentage over the time, 6 horas INC-5?
// result 33.3

###

system: T. cruzi blood trypomastigote (Ninoa strain); assay: ex vivo evaluation against blood trypomastigotes, Ninoa strain; format: cell-based; conditions: Trypanosoma cruzi, 24 h at 4 °C
measured-attribute: pIC50
Answers are plain numbers, as −log10 of the molar value.

Recorded results for 2 compounds are shown here.
COc1ccc2cc([C@H](C)C(=O)O)ccc2c1 [Naproxen] ... 4.23
O=C(Cn1ccnc1[N+](=O)[O-])NCc1ccccc1 [Benznidazole] ... 3.81

Give measured pIC50 for every item shown.
1. CC1CS(=O)(=O)CCN1/N=C/c1ccc([N+](=O)[O-])o1 (stereo not shown) [Nifurtimox]
2. O=C(O)c1cn(C2CC2)c2cc(N3CCNCC3)c(F)cc2c1=O [Ciprofloxacin]

// result
3.78
4.59

// query Any idea what its pIC50 is? The compound is Nc1nc(=O)c2nc(CNc3ccc(C(=O)N[C@@H](CCC(=O)O)C(=O)O)cc3)cnc2[nH]1 [Folic acid]
// result 4.55

###

test system: T. cruzi blood trypomastigote (INC-5 strain); test: ex vivo evaluation against blood trypomastigotes, INC-5 strain; format: cell-based; details: Trypanosoma cruzi; rounded value in the discussion, refers to Table 3; strain not stated; read-out: IC50, inhibitor of T. cruzi trypomastigotes
measured-attribute: IC50 (µM)
Give bare numbers, in µM.

// query Item O=C(O)c1cn(C2CC2)c2cc(N3CCNCC3)c(F)cc2c1=O [Ciprofloxacin] with T. cruzi blood trypomastigote (INC-5 strain) - IC50?
// result 21
